Listing of recorded melting point by entry.
parameter-measured: melting point

1) COc1ccc2c(C#N)c(-c3ccc(N4CCCS4(=O)=O)cc3)n(CC3CC3)c2c1: 204 to 205 °C
2) CCn1c(-c2cccc(NC(N)=S)c2)c(C#N)c2ccc(OC)cc21: 204 to 205 °C
3) CCc1nc(-c2cn(CC)c3cc(OC)ccc23)no1: 68 to 70 °C
4) CC(OC(=O)Nc1ccc(-c2c(C#N)c3ccc(OCCn4cncn4)cc3n2C2CCC2)cc1)C1CC1 (stereo not drawn): 98 °C
5) CCn1c(-c2ccc(OCCNC=O)cc2)c(C#N)c2ccc(OC)cc21: 89 to 95 °C
6) CCOC(=O)c1c(C)n(-c2ccc(OC)cc2)c2ccc(OC(F)F)cc12: 89 to 90 °C
7) CCn1c(C#Cc2ccc(NC(=O)NCCCl)cc2)c(C#N)c2ccc(OC)cc21: 205 to 209 °C
8) CCOc1ccc(-c2c(C#N)c3ccc(Br)cc3n2CC)cc1: 140 to 141 °C
9) CCOc1ccc2c(C#N)c(-c3ccc(N(CC)C(=O)OC4CCCC4)cc3)n(C3CCC3)c2c1: 137 to 142 °C

###

tested on: HCV replicon; assay: microbe, parasite or virus in culture; format: cell-based, hepatitis C virus; settings: Hepatitis C virus, read-out: Replicon IC50 μM
Reported IC50 values follow for various compounds
parameter-measured: IC50

1. CCOc1ccc2c(C(=O)N(C)C)c(-c3ccc(N4C(=O)CN(C)C4=O)cc3)n(CC)c2c1 [Compound 781]: < 0.5 µM
2. CCOC(=O)CNC(=O)Nc1ccc(-c2c(C#N)c3ccc(OCC)cc3n2CC)cc1 [Compound 773]: 0.5 to 2 µM
3. CCn1cc(C#N)c2ccc(C(=O)Nc3ccccc3)cc21 [Compound 15]: > 2 µM
4. CCn1c(-c2ccc(N)cc2)c(C#N)c2ccc(OC)cc21 [Compound 55]: > 2 µM
5. CCn1c(C#Cc2ccc(F)cc2)c(C#N)c2ccc(OC)cc21 [Compound 67]: 0.5 to 2 µM
6. CCn1c(-c2ccc(OCCN3CCOCC3)cc2)c(C#N)c2ccc(OC)cc21 [Compound 261]: 0.5 to 2 µM
7. CCn1cc(-c2cc(-c3ccc(OC)cc3)on2)c2ccc(OC)cc21 [Compound 116]: > 2 µM
8. CCNC(=O)Nc1ccc2c(C#N)c(-c3ccc(OCC)cc3)n(CC)c2c1 [Compound 839]: > 2 µM
9. CCn1c(N2CCN(C(=O)OC(C)(C)C)CC2)c(C#N)c2ccc(C(F)(F)F)cc21 [Compound 785]: 0.5 to 2 µM
10. CCn1c(-c2ccc(NC(C)=O)cc2)c(C#N)c2ccc(OC)cc21 [Compound 128]: > 2 µM
11. CCOc1ccc2c(C#N)c(-c3ccc(NC(=O)NC(Cc4ccccc4)C(=O)OC)cc3)n(CC)c2c1 (stereo not shown) [Compound 777]: < 0.5 µM
12. CCn1cc(C#N)c2ccc(NC(=O)OC(C)(C)C)cc21 [Compound 16]: > 2 µM
13. CCn1c(-c2ccc(N3CCCS3(=O)=O)cc2)c(C#N)c2ccc(OC(C)C)cc21 [Compound 666]: < 0.5 µM
14. CCOc1ccc2c(C#N)cn(CC)c2c1 [Compound 9]: > 2 µM
15. CCn1c(-c2ccc(NC(=O)NCCCl)cc2)c(C#N)c2ccc(OC)cc21 [Compound 442]: > 2 µM
16. CCn1c(-c2ccc([N+](=O)[O-])cc2)c(C#N)c2cc(C(C)=O)c(OC)cc21 [Compound 844]: > 2 µM

# credit: patent US7868037B2
